- Condition Label: siRNA; further: test system not given here
HELM strings list units from the 5' end as sugar, base in round brackets, then linkage (d deoxyribose, r ribose, m 2'-O-methyl, p phosphodiester). Strings are as the collection lists them, not checked against the first reports. ss, as = sense and antisense strand; [fl2r] = 2'-fluoro
Endpoint Name: target mRNA knockdown (%)
Field: numeric (%). Do not append units.

response.value for `RNA1{[fl2r](U)p.r(C)p.[fl2r](C)p.r(G)p.[fl2r](G)p.r(C)p.[fl2r](U)p.r(A)p.[fl2r](A)p.r(C)p.[fl2r](U)p.r(C)p.[fl2r](U)p.r(G)p.[fl2r](A)p.r(G)p.[fl2r](G)p.r(A)p.[fl2r](C)p.r(T)p.r(T)}|RNA2{r(G)p.r(U)p.r(C)p.r(C)p.r(U)p.r(C)p.r(A)p.r(G)p.r(A)p.r(G)p.r(U)p.r(U)p.r(A)p.r(G)p.r(C)p.r(C)p.r(G)p.r(G)p.r(A)p.r(T)p.r(T)}$$$RNA1{StrandType:ss}|RNA2{StrandType:as}$` (field: target mRNA knockdown) = 41

For reference, reported target mRNA knockdown for `RNA1{[fl2r](A)p.r(G)p.[fl2r](U)p.r(U)p.[fl2r](U)p.r(C)p.[fl2r](U)p.r(A)p.[fl2r](G)p.r(G)p.[fl2r](G)p.[fl2r](C)p.r(C)p.[fl2r](G)p.r(U)p.r(G)p.[fl2r](G)p.r(C)p.r(C)p.r(T)p.r(T)}|RNA2{r(G)p.r(G)p.r(C)p.r(C)p.r(A)p.r(C)p.r(G)p.r(G)p.r(C)p.r(C)p.r(C)p.r(U)p.r(A)p.r(G)p.r(A)p.r(A)p.r(A)p.r(C)p.r(U)p.r(T)p.r(T)}$$$RNA1{StrandType:ss}|RNA2{StrandType:as}$` stands at 75
